System Name: CzcR (Pseudomonas aeruginosa PAO1) (UniProt Q9RLJ1)
Sequence: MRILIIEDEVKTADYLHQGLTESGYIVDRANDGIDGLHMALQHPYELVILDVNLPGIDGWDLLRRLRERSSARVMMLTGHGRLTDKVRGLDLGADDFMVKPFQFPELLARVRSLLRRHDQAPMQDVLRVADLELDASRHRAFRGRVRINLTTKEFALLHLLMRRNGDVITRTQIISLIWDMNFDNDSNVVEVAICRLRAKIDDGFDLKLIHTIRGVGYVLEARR
Test Name: EMSA
Condition Set: Thermo Scientific EMSA kit per manufacturer's instructions; buffer, salt, pH and temperature not stated
Measure: binding

Sequence Data | System Name | Result
GACGTACAGCATCTTGTCCATCGAATCCTCCAGGCACCGGCACAATCCGCCGGGCTTTCTTGCAGGTTATCCAGCAAGCGCCGTGCCAGAATTCGAAAAAACAATTAATACATTGATTTAAAAGGATTTTATAAAACAGAAAGCCTCCTTTCGGAGGCTTCGGGGGCAA (double strand) [PflgF] | CzcR (Pseudomonas aeruginosa PAO1) (UniProt Q9RLJ1) | binds
CATCTGCTTCATACCTTGTGTTGTCGTCTTCCCGGAACGCCCCTTCCAGCGCTCTCCGGTATTGGCGGGAACGATGCGCCATCGCTCCCGGCCCGGCGGAAGCCACCTTCGCTTCCGTCACCCGCGCCACGCGCGGTTCTTCCCACGTCCTCA (double strand) [PfleN] | CzcR (Pseudomonas aeruginosa PAO1) (UniProt Q9RLJ1) | binds
GTTCCAGGGGCTTGCCACCCTTGCCGGCAAGCGGAAGCGGCTTGCCGCTTGCCGCTTCCGGGTTACCCTTAAATAAACTCAAGTTATTGAATATAAAGGTTTTTAATAATTTGGCACGGGCCTTGCTGAAGTGTTGGCGACGAAAGCCACACCGGCAAACAGGTTCGCAGCCATGAGCATCAGTTTCGA (double strand) [PflgB] | CzcR (Pseudomonas aeruginosa PAO1) (UniProt Q9RLJ1) | binds

* * *

System Name: CzcR (Pseudomonas aeruginosa PAO1) (UniProt Q9RLJ1)
Sequence: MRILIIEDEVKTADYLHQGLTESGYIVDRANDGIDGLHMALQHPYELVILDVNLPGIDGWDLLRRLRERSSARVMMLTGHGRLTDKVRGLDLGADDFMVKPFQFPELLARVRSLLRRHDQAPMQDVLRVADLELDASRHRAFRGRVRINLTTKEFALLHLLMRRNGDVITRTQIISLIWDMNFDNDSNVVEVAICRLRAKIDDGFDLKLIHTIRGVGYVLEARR
Test Name: EMSA
Condition Set: Thermo Scientific EMSA kit per manufacturer's instructions; buffer, salt, pH and temperature not stated
Measure: binding

Sequence Data | Result
GCAACCGTTCGGAACATTCTTCCCGTCGGGGGTAGGCGAGCGACTTGCCCTGTGGAATAATACTGTCTACTTATACAGTTGTTCGTGGCCGTCCGGCCGCCCTGACTTCGCGAGGACTTCAATGGA (double strand) [recA fragment (PrecA)] | no binding
GGTGATTTCCTCCAAAGGACCTATTTCGGTTACCTGAGCTTGCGATCTCTCGGCCTGCTTGCTCAGGTGCCCCAAGAATTCGCGTTCATGGTGTTTATCGGCGTTTCCCGGCGGAGCTTTAGAGAAAAAATCAACATTTTCTTTTTCTCTTCCTCTTCAGTGGGTTACATGCTTCGAAGAGGACTCGCCAATATCGGTCCTGAA (double strand) [PfliC] | no binding
GCGCACATTGCTGATCAGTTGCGTGCGATCCACTCTCGACTCCCCTGCCCTGCGTATGGCGCCCGTGGGTGGGCGCCGAACAAACTTTTGACGCCGGAATGCGCGTCGGGCGGGTCATTGCAGGAACCGTTCCAACTTTTCAATTCATTGATTGAAAAGGGTTTTCGCCAA (double strand) [PflhA] | no binding
TACACAGTGTCCTGTTCGAAACCCGCGCCTGACGCGCGGGTTGAACGACTTGGCATGGTGCTTGCCCTATCGAAGGGATAGGGCAGTACATGCACGGTTTTTTGACGGAGATGGATTATGGCCGGTATCTCGATAGGAGTA (double strand) [PfliD] | no binding
TCATGGGTGTCGGGCTCGGTGTCGGCGAGGCGGCGAACTGGCTTTTCGAGTATTCGGACTATAGTCTTGCGGCTAGCAACCGATAACAAGAGGGAGCCTAGCAGTCCCCCTCCTTATCCTGTTCATTTCGCACGTCCGGTCCTCATGTCAAAAATCATCGGC (double strand) [PmotA] | no binding

Please report binding for the following sequence: CTGACTCATGACTCTTCCTCCAACAGCCGCGGCTTTTTTGACGCCGCCCGGCACTTTGCAGAGGAGTTAGCAACAAGGGTGCCAAGTCGGCCCCAAGGCCCGGCATCGGCGTTCGCCGCCAATGCCCGCGACCGCTGCAGGGTCCGTCCCTGCTCCGGTTATCGGCAGGCGCGCACGCTCGAACAG (double strand) [PfliE]
no binding

Please report binding for the following sequence: TTTCTTAGCCATGCCAAAAATCCGTCGCTATAGCGTCAAATGAAGGGTTTCACAGGGGCAGAGCAAGGGTTGTGCCATTTCTGCAACGCCGCCCCGCCTCCTGGGACCAGCCCCGGAGGGCTGTCCGAGATGATAGACGGCGCGGATATTACAGCCTGGCCACAGGAAATCATCCCCGTCTTTTGCGAAATTGCC (double strand) [PPA1442]
binds
